Where do the numbers come from? From patent US4395969A.

# run description: Static bioassay, lethal concentration to sockeye salmon
# Assay type: in vivo, O. nerka
# study conditions: sockeye salmon, in vivo, 10 C; 96 h; read-out: LC50
quantity measured: LC50 at 96 h (µg/mL)
Write it as a number; the unit µg/mL goes unstated.

Consider the compound shown here: CCOP(=O)(OC=C(Cl)Cl)OCC [2,2-dichlorovinyl diethyl phosphate] What is its recorded LC50 at 96 h?
6

---

# run description: Static bioassay, lethal concentration to sockeye salmon
# Assay type: in vivo, O. nerka
# study conditions: sockeye salmon, in vivo, with 4 Cl 300:1; 10 C; 192 h; read-out: LC50 in combination, 2 Cl component
quantity measured: LC50 at 192 h (µg/mL)
Response body: numeric value in µg/mL, unit text excluded.

Requested field: LC50 at 192 h. Item: CCOP(=O)(OC=C(Cl)Cl)OCC [2,2-dichlorovinyl diethyl phosphate]
1.8
